- test.target: human cloned 5-HT6 receptors (Homo sapiens)
- Construct: expressed in transfected cells; host or cells: HeLa cells (membrane preparation)
- Sequence (P50406 whole entry): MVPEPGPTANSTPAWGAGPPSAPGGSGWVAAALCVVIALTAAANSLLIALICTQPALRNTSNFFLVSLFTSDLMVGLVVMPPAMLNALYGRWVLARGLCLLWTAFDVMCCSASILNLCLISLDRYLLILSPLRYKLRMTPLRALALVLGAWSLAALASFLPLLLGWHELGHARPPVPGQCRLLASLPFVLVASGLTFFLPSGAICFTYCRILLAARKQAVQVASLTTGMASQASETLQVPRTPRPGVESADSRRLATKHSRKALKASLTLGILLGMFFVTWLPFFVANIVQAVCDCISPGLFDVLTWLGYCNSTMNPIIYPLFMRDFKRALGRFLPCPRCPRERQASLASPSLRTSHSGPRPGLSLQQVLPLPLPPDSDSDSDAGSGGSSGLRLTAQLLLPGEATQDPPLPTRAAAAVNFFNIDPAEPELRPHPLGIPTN
- protocol.details: 5-HT6 binding affinity, [3H]-LSD displacement on membranes of Hela cells expressing human cloned 5-HT6 receptors
- measurement.setup: 5-HT6 Binding Ki, [3H]-LSD 3.0 nM, Hela cell membranes, 120 min at room temperature
- Description: The affinity of test compounds for the serotonin 5-HT6 receptor is evaluated in the following manner. […] The final pellet is suspended in a small volume of Tris.HCl buffer and the tissue protein content is determined in aliquots of 10-25 μl volumes. […] Binding in the presence of varying concentrations of test compound is expressed as a percentage of specific binding in the absence of test compound. […]
reported.endpoint: pKi
As a rule, pKi stands for the negative log10 of the concentration, concentration in M.

Which pKi is listed for CCCCn1nc(S(=O)(=O)c2cccc3ccccc23)c2cc(N3CCN(C)CC3)ccc21 [Example 48] ?
8.40

Which pKi is listed for CN1CCN(c2ccc3[nH]nc(S(=O)(=O)c4cccs4)c3c2)CC1 [Example 54] ?
8.10

Value source: patent US7560470B2
